- system_name: short form of the GPR120 receptor (GPR120S) (Homo sapiens, UniProt Q5NUL3)
- Construct: host or cells: PathHunter CHO-K1 GPR120S β-Arrestin Cell Line
- Sequence (Q5NUL3 whole entry): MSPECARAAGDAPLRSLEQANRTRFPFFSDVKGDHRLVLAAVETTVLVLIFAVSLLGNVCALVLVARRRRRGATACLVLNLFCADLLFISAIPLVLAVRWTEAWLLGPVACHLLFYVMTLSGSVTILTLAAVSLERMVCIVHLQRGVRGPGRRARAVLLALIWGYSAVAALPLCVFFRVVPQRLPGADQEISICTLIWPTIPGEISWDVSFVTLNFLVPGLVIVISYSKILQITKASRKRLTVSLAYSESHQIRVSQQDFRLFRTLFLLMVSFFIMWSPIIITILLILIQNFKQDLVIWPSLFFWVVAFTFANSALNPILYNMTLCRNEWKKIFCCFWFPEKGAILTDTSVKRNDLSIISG
- Sequence (P32121 whole entry partner): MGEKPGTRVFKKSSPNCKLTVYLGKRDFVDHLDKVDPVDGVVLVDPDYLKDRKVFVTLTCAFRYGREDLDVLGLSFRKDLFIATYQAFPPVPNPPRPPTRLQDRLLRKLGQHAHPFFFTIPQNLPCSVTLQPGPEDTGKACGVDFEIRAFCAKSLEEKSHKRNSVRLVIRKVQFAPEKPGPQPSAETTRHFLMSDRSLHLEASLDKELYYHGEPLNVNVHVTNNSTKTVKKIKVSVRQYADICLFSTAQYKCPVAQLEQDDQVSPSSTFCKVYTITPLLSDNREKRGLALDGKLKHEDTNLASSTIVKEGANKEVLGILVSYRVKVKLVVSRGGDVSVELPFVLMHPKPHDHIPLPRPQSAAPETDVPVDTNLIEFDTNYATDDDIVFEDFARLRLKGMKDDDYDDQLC
- procedure_details: Human GPR120 DiscoveRx PathHunter Beta-Arrestin assay, Procedure β-arrestin B
- Format: cell-based
- settings: PathHunter CHO-K1 GPR120S β-Arrestin cell line, 5000 cells/well, read-out: hGPR120 β-arrestin B EC50
pEC50: −log10 of the molar value.
endpoint: pEC50

INSERT INTO measurements (compound, endpoint, meas_value) VALUES
  ('O=C(O)CCc1cc(F)c(OCc2c(C3CCCC3)nsc2C(F)(F)F)c(F)c1 [Cpd 71]', 'pEC50', 6.86),
  ('O=C(O)C1CC1c1ccc(OCc2c(-c3ccc(Cl)cc3)nsc2C(F)(F)F)cc1 (stereo not drawn) [Cpd 205]', 'pEC50', 6.13),
  ('Cc1ccc(-c2snc(C(F)(F)F)c2COc2c(F)cc(CCC(=O)O)cc2F)c(F)c1 [Cpd 95]', 'pEC50', 6.94);

(P) Cc1c(CCC(=O)O)ccc(OCc2c(C(F)(F)F)nsc2-c2ccc(Cl)c(F)c2)c1C [Cpd 136]
(Q) CCc1ccc(-c2nsc(C(F)(F)F)c2COc2ccc(CCC(=O)O)c(C)c2C)c(F)c1 [Cpd 225]
(R) COc1cccc(-c2nsc(C(F)(F)F)c2COc2c(F)cc(CCC(=O)O)cc2F)c1 [Cpd 94]
Data request: Arrange the 3 compounds from largest to smallest pEC50. To answer, write out the labels according to the requested order.
Data returned: R, Q, P

(A) Cc1c(CCC(=O)O)ccc(OCc2c(-c3ccc(F)c(F)c3)nsc2C(F)(F)F)c1C [Cpd 143]
(B) Cc1cc(CCC(=O)O)c(C(F)(F)F)cc1OCc1c(Cl)nsc1-c1ccccc1C [Cpd 210]
Data request: Please tell me which of the two, A or B , has the higher reported pEC50 value. API: response body contains the label of the selected item.
Data returned: A
(A: 6.43, B: 5.98)

(a) O=C(O)CCc1ccc(OCc2c(C(F)(F)F)nsc2-c2ccc(Cl)cc2)cc1OC(F)(F)F [Cpd 159]
(b) O=C(O)CCc1cc(F)c(OCc2c(-c3ccc(C(F)(F)F)cc3)nsc2C(F)(F)F)c(F)c1 [Cpd 121]
(c) CCc1ccc(-c2nsc(C(F)(F)F)c2COc2c(F)cc(CC(C)C(=O)O)cc2F)c(F)c1 (stereo not drawn) [Cpd 188]
Data request: Arrange the 3 compounds from largest to smallest pEC50. To answer, write out the labels according to the requested order.
Data returned: b, c, a

(A) O=C(O)CCc1cc(F)c(OCc2c(C3CC(F)(F)C3)nsc2C(F)(F)F)c(F)c1 [Cpd 147]
(B) Cc1c(CCC(=O)O)ccc(OCc2c(C3CCC(F)(F)C3)nsc2C(F)(F)F)c1C (stereo not drawn) [Cpd 199]
Data request: Please tell me which of the two, A or B , has the higher reported pEC50 value. API: response body contains the label of the selected item.
Data returned: A
(A: 6.41, B: 6.21)
